Just for reference, patent US20250049891A1 is where these values come from.

Quick reference: remaining at 2 h, 1 μM of the listed items.
experiment: in vitro; details: human, plasma
Numbered stars: 1 amine (or outer) side, 2 acyl side, 3 side chain; on linkers, the order of the positions; unused ones are H or OH. Bridge positions count the residues as written; N and C are the ends. Square brackets hold non-standard residues; d marks the D form. Peptide text beside a SMILES is read from it. ξ: configuration not given here. ξhAlg = O=C(C(CCC=[*:3])N[*:1])[*:2]; AllylGly = C=CC[CH](N)C(=O)O

| compound | relational operator | remaining at 2 h, 1 μM, % |
| --- | --- | --- |
| CC(=O)NC(CC(=O)O)C(=O)NC(Cc1ccc(O)cc1)C(=O)NC(Cc1ccc(O)cc1)C(=O)NC(Cc1ccccc1)C(=O)O (centres unmarked) [DS-28, AcNH-DYYF-OH] (Ac-DYYF-OH; configuration not given here) | = | 3.1 |
| CC(C)CC(NC(=O)CN)C(=O)N(C)C(Cc1ccc(O)cc1)C(=O)NC(Cc1ccc(O)cc1)C(=O)NC(Cc1ccccc1)C(N)=O (centres unmarked) | < | 1 |
| NCCCCC(NC(=O)C(Cc1ccc(O)cc1)NC(=O)C(Cc1ccc(O)cc1)NC(=O)C(CC(=O)O)NC(=O)CN)C(N)=O (centres unmarked) [DS-35, NH2-GDYYK-NH2] (H-GDYYK-NH2; configuration not given here) | < | 1 |
| CC(C)CC1NC(=O)C(N)CC/C=C\CC(C(N)=O)NC(=O)C(Cc2ccc(O)cc2)NC(=O)C(Cc2ccc(O)cc2)NC1=O (centres unmarked) [DS-73] (H-[ξhAlg]LYY[AllylGly]-NH2; staple (Z) 1-5; configuration not given here) | = | 75.2 |
| CC(C)C[C@H](NC(=O)CN)C(=O)N[C@@H](Cc1ccc(O)cc1)C(=O)N[C@@H](Cc1ccc(O)cc1)C(=O)N[C@@H](Cc1ccccc1)C(=O)O [APN5, NH2-GLYYF-OH, reference compound] | < | 1 |

* * *

experiment: Plasma stability test, human plasma; conditions: human, plasma

| compound | remaining at 2 h, 1 μM |
| --- | --- |
| CC(C)CC(NC(=O)CN)C(=O)NC(Cc1ccc(O)cc1)C(=O)NC(Cc1ccc(O)cc1)C(=O)N(C)C(Cc1ccccc1)C(N)=O (centres unmarked) [DS-48, NH2-GLYYF(N-Me)-NH2] | < 1% |
| Cc1cc(CC(NC(=O)C(CC(=O)O)NC(=O)CN)C(=O)NC(Cc2ccc(O)cc2)C(=O)NC(Cc2ccccc2)C(N)=O)cc(C)c1O (centres unmarked) [DS-41, NH2-GDY(Dmt)YF-NH2] | < 1% |

* * *

assay: in vitro; details: human, plasma
Numbered stars: 1 amine (or outer) side, 2 acyl side, 3 side chain; on linkers, the order of the positions; unused ones are H or OH. Bridge positions count the residues as written; N and C are the ends. Square brackets hold non-standard residues; d marks the D form. Peptide text beside a SMILES is read from it. ξ: configuration not given here. ξhAlg = O=C(C(CCC=[*:3])N[*:1])[*:2]; AllylGly = C=CC[CH](N)C(=O)O
measured property: remaining at 0.5 h, 1 μM

| compound | reported measurement |
| --- | --- |
| CC(C)C[C@H](NC(=O)CN)C(=O)N[C@@H](Cc1ccc(O)cc1)C(=O)N[C@@H](Cc1ccc(O)cc1)C(=O)N[C@@H](Cc1ccccc1)C(=O)O [APN5, NH2-GLYYF-OH, reference compound] | < 1% |
| NCCCCC(NC(=O)C(Cc1ccc(O)cc1)NC(=O)C(Cc1ccc(O)cc1)NC(=O)C(CC(=O)O)NC(=O)CN)C(N)=O (centres unmarked) [DS-35, NH2-GDYYK-NH2] (H-GDYYK-NH2; configuration not given here) | 2.9% |
| CC(C)CC(NC(=O)CN)C(=O)N(C)C(Cc1ccc(O)cc1)C(=O)NC(Cc1ccc(O)cc1)C(=O)NC(Cc1ccccc1)C(N)=O (centres unmarked) | 2.8% |
| CC(=O)NC(CC(=O)O)C(=O)NC(Cc1ccc(O)cc1)C(=O)NC(Cc1ccc(O)cc1)C(=O)NC(Cc1ccccc1)C(=O)O (centres unmarked) [DS-28, AcNH-DYYF-OH] (Ac-DYYF-OH; configuration not given here) | 17.6% |
| CC(C)CC1NC(=O)C(N)CC/C=C\CC(C(N)=O)NC(=O)C(Cc2ccc(O)cc2)NC(=O)C(Cc2ccc(O)cc2)NC1=O (centres unmarked) [DS-73] (H-[ξhAlg]LYY[AllylGly]-NH2; staple (Z) 1-5; configuration not given here) | 94.7% |

* * *

assay: Metabolic stability test, mouse liver microsomes; format: in vitro ADME; details: pH 7.4, mouse liver microsomes 0.5 mg/ml, NADPH, 37° C., 30 m
Numbered stars: 1 amine (or outer) side, 2 acyl side, 3 side chain; on linkers, the order of the positions; unused ones are H or OH. Bridge positions count the residues as written; N and C are the ends. Square brackets hold non-standard residues; d marks the D form. Peptide text beside a SMILES is read from it. ξ: configuration not given here. ξhAlg = O=C(C(CCC=[*:3])N[*:1])[*:2]; AllylGly = C=CC[CH](N)C(=O)O
Quick reference: remaining at 0.5 h, 1 μM of the listed items.

| compound | unit abbreviation | remaining at 0.5 h, 1 μM |
| --- | --- | --- |
| NCCCCC(NC(=O)C(Cc1ccc(O)cc1)NC(=O)C(Cc1ccc(O)cc1)NC(=O)C(CC(=O)O)NC(=O)CN)C(N)=O (stereo not shown) [DS-35, NH2-GDYYK-NH2] (H-GDYYK-NH2; configuration not given here) | % | 99.2 |
| CC(C)C[C@H](NC(=O)CN)C(=O)N[C@@H](Cc1ccc(O)cc1)C(=O)N[C@@H](Cc1ccc(O)cc1)C(=O)N[C@@H](Cc1ccccc1)C(=O)O [APN5, NH2-GLYYF-OH, reference compound] | % | 9.5 |
| CC(C)CC(NC(=O)CN)C(=O)N(C)C(Cc1ccc(O)cc1)C(=O)NC(Cc1ccc(O)cc1)C(=O)NC(Cc1ccccc1)C(N)=O (stereo not shown) | % | 10.6 |
| CC(=O)NC(CC(=O)O)C(=O)NC(Cc1ccc(O)cc1)C(=O)NC(Cc1ccc(O)cc1)C(=O)NC(Cc1ccccc1)C(=O)O (stereo not shown) [DS-28, AcNH-DYYF-OH] (Ac-DYYF-OH; configuration not given here) | % | 96.6 |
| CC(C)CC1NC(=O)C(N)CC/C=C\CC(C(N)=O)NC(=O)C(Cc2ccc(O)cc2)NC(=O)C(Cc2ccc(O)cc2)NC1=O (stereo not shown) [DS-73] (H-[ξhAlg]LYY[AllylGly]-NH2; staple (Z) 1-5; configuration not given here) | % | 78 |
| Cc1cc(CC(NC(=O)C(CC(=O)O)NC(=O)CN)C(=O)NC(Cc2ccc(O)cc2)C(=O)NC(Cc2ccccc2)C(N)=O)cc(C)c1O (stereo not shown) | % | 95.2 |
| CC(C)CC(NC(=O)CN)C(=O)NC(Cc1ccc(O)cc1)C(=O)NC(Cc1ccc(O)cc1)C(=O)N(C)C(Cc1ccccc1)C(N)=O (stereo not shown) | % | 20.6 |

* * *

target: CYP2C9 (Homo sapiens, UniProt P11712); conditions: microsomes, 10 µM
Sequence (P11712 whole entry): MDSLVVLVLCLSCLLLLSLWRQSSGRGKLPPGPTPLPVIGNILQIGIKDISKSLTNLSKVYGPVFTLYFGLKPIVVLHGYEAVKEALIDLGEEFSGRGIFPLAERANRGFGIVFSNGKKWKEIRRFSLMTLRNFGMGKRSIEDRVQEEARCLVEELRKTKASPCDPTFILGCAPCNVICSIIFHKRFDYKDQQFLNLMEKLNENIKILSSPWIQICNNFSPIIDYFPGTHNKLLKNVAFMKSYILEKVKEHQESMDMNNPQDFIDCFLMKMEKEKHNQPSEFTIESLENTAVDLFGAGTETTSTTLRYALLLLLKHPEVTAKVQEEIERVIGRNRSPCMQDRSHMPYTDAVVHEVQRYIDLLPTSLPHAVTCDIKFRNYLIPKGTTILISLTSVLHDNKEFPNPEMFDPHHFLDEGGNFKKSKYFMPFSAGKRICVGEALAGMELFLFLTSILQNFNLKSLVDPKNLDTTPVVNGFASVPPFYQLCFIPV
Numbered stars: 1 amine (or outer) side, 2 acyl side, 3 side chain; on linkers, the order of the positions; unused ones are H or OH. Bridge positions count the residues as written; N and C are the ends. Square brackets hold non-standard residues; d marks the D form. Peptide text beside a SMILES is read from it. ξ: configuration not given here. ξhAlg = O=C(C(CCC=[*:3])N[*:1])[*:2]; AllylGly = C=CC[CH](N)C(=O)O
measured property: CYP inhibition (% of control activity) CYP2C9

| molecule | reported measurement |
| --- | --- |
| CC(C)CC1NC(=O)C(N)CC/C=C\CC(C(N)=O)NC(=O)C(Cc2ccc(O)cc2)NC(=O)C(Cc2ccc(O)cc2)NC1=O (stereo not drawn) [DS-73] (H-[ξhAlg]LYY[AllylGly]-NH2; staple (Z) 1-5; configuration not given here) | 96.5 % of control activity |
| CC(=O)NC(CC(=O)O)C(=O)NC(Cc1ccc(O)cc1)C(=O)NC(Cc1ccc(O)cc1)C(=O)NC(Cc1ccccc1)C(=O)O (stereo not drawn) [DS-28, AcNH-DYYF-OH] (Ac-DYYF-OH; configuration not given here) | 96.9 % of control activity |
| CC(=O)N1CCN(c2ccc(OCC3COC(Cn4ccnc4)(c4ccc(Cl)cc4Cl)O3)cc2)CC1 (stereo not drawn) [Ketoconazole, reference compound] | >100 % of control activity |
| CC(C)C[C@H](NC(=O)CN)C(=O)N[C@@H](Cc1ccc(O)cc1)C(=O)N[C@@H](Cc1ccc(O)cc1)C(=O)N[C@@H](Cc1ccccc1)C(=O)O [APN5, NH2-GLYYF-OH, reference compound] | >100 % of control activity |
| NCCCCC(NC(=O)C(Cc1ccc(O)cc1)NC(=O)C(Cc1ccc(O)cc1)NC(=O)C(CC(=O)O)NC(=O)CN)C(N)=O (stereo not drawn) [DS-35, NH2-GDYYK-NH2] (H-GDYYK-NH2; configuration not given here) | 93.6 % of control activity |
| CC(C)CC(NC(=O)CN)C(=O)N(C)C(Cc1ccc(O)cc1)C(=O)NC(Cc1ccc(O)cc1)C(=O)NC(Cc1ccccc1)C(N)=O (stereo not drawn) [DS-56, NH2-GLY(N-Me)YF-NH2] | 100.0 % of control activity |
